molecular target: Peroxisome proliferator-activated receptor gamma (Homo sapiens) (UniProt P37231); experiment: ATG_PPARg_TRANS: Attagene TRANS-FACTORIAL HepG2 Assay for human Peroxisome Proliferator-activated Receptor-gamma (PPARg) (AID 2283007)
Sequence (P37231 whole entry, looked up): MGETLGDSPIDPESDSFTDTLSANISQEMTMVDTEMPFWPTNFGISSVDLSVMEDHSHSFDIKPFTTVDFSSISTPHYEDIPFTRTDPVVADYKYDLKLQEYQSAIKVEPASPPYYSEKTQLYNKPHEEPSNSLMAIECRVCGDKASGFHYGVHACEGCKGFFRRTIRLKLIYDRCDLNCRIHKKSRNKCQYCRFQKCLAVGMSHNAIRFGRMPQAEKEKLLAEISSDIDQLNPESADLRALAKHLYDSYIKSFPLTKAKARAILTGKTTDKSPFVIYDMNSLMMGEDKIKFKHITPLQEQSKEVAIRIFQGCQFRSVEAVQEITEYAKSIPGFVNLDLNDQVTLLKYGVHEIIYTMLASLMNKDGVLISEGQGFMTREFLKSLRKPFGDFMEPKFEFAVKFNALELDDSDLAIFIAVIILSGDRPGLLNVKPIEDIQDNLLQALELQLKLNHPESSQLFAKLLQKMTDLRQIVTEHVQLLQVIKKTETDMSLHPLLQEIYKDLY
Inconclusive results are not listed. Calls of active or inactive are those of the source. Rule for the calls: active = hit-call score of the fitted dose curve at least 0.9, where 1 is the maximum; inconclusive = response in the unintended direction; inactive = score below 0.9.
Pick one and only one: true (1) for active, false (0) for inactive

> print(dat)
                                   molecule      class
1    CC1CCC(C(=O)O)CC1 (stereo unspecified)  false (0)
2                                  CCOCCOCC  false (0)
3                          CCCCCc1ccc(O)cc1   true (1)
4                        O=S(=O)(O)c1ccccc1  false (0)
5  CC(C)(c1ccc(Oc2ccc(N)cc2)cc1)c1ccc(Oc2ccc(N)cc2)cc1   true (1)

Would you mind telling me which call this test gave "CCc1cccc(CC)c1N(COC)C(=O)CS(=O)(=O)O" ? false (0)

Can you handle CC1COCc2cc3c(cc21)C(C)(C)C(C)C3(C)C (stereo unspecified) next? true (1)

Can you handle "CCCCCCCC(OC)OC" next? false (0)

Can you handle "CCCCCCC(C)(C)C(=O)O" next? true (1)

Can you handle "Nc1cc(Cl)c(-c2cc(Cl)c(N)cc2Cl)cc1Cl" next? true (1)
